# credit: ChEMBL document CHEMBL3739307

- run_description: Cmax in rat heart at 10 mg/kg, po administered as single dose
- Type: ADME, organism-based
- Design: dose 10 mg/kg, route oral
value_kind: Cmax (µM)
Provide the reading as a plain figure in µM.

Consider the compound NCCCC[C@H](N)C(=O)O.O=C(Nc1nnc(Cc2cc(F)cc(F)c2)s1)c1ccc(O[C@H]2CC[C@@H](C(=O)O)CC2)cc1 . State its measured Cmax.
4.2

###

- run_description: Metabolic stability in mouse liver microsomes
- Format: ADME
Assign class by Stability: not lower than 9% means 1.0; lower than 9% means 0.0.

Past entries and their recorded results:
molecule="O=C(O)C[C@H]1CC[C@H](c2ccc(C(=O)Nc3nnc(CCC4CCCO4)s3)cc2)CC1 (stereo partly drawn)" answer_label=0.0
molecule=O=C(Nc1nnc(Cc2cc(F)cc(F)c2)s1)c1ccc(O[C@H]2CC[C@@H](C(=O)O)CC2)cc1 answer_label=1.0
molecule=O=C(Nc1nnc(COC2CCCC2)s1)c1ccc(O[C@H]2CC[C@@H](C(=O)O)CC2)cc1 answer_label=0.0
molecule=O=C(Nc1nnc(Cc2ccccc2)s1)c1ccc(O[C@H]2CC[C@@H](C(=O)O)CC2)cc1 answer_label=1.0

Check this molecule for Stability at or above 9%: O=C(Nc1nnc(Nc2ccccc2)s1)c1ccc(O[C@H]2CC[C@@H](C(=O)O)CC2)cc1
0.0

Check this molecule for Stability at or above 9%: O=C(Nc1nc(Cc2cc(F)cc(F)c2)no1)c1ccc(O[C@H]2CC[C@@H](C(=O)O)CC2)cc1
1.0

Check this molecule for Stability at or above 9%: O=C(O)C[C@H]1CC[C@H](c2ccc(C(=O)Nc3nnc(Cc4ccccc4)s3)cc2)CC1
0.0

###

Listing of recorded Stability by entry.
- Test system: Liver microsome
- run_description: Metabolic stability in human liver microsomes
- Assay type: ADME
Provide the reading as a plain figure in %.

Consider the molecule O=C(Nc1nnc(Cc2cc(F)cc(F)c2)s1)c1ccc(O[C@H]2CC[C@H](C(=O)O)CC2)cc1 . State its measured Stability.
1

Consider the molecule O=C(Nc1nnc(COC2CCCC2)s1)c1ccc(O[C@H]2CC[C@@H](C(=O)O)CC2)cc1 . State its measured Stability.
5

Consider the molecule O=C(O)C[C@H]1CC[C@H](c2ccc(C(=O)Nc3nnc(Cc4ccccc4)s3)cc2)CC1 . State its measured Stability.
0

Consider the molecule O=C(Nc1nnc(Cc2ccccc2)s1)c1ccc(O[C@H]2CC[C@@H](C(=O)O)CC2)cc1 . State its measured Stability.
3

Consider the molecule O=C(O)C[C@H]1CC[C@H](c2ccc(C(=O)Nc3nnc(CCC4CCCO4)s3)cc2)CC1 (stereo partly drawn) . State its measured Stability.
9

###

- run_description: Cmax in rat liver at 10 mg/kg, po administered as single dose
- Assay type: ADME, organism-based
- Design: dose 10 mg/kg, route oral
value_kind: Cmax (µM)
Provide the reading as a plain figure in µM.

Consider the molecule NCCCC[C@H](N)C(=O)O.O=C(Nc1nnc(Cc2cc(F)cc(F)c2)s1)c1ccc(O[C@H]2CC[C@@H](C(=O)O)CC2)cc1 . State its measured Cmax.
248

###

- run_description: Cmax in rat plasma at 10 mg/kg, po administered as single dose
- Type: ADME, organism-based
- Parameters: dose 10 mg/kg, route oral
value_kind: Cmax
Answer with the number, then the unit.

Consider the compound NCCCC[C@H](N)C(=O)O.O=C(Nc1nnc(Cc2cc(F)cc(F)c2)s1)c1ccc(O[C@H]2CC[C@@H](C(=O)O)CC2)cc1 . State its measured Cmax.
13.2 µM

###

Listing of recorded Papp by entry.
- run_description: Permeability across human Caco2 cells
- Type: ADME, cell-based
- details: Caco-2, read-out: permeability
Provide the reading as a plain figure in ×10⁻⁶ cm/s.

molecule=O=C(Nc1nnc(Cc2cccc(Cl)c2)s1)c1ccc(O[C@H]2CC[C@@H](C(=O)O)CC2)nc1 measured=1.7
molecule=O=C(Nc1nnc(Cc2cc(F)cc(F)c2)s1)c1ccc(O[C@H]2CC[C@@H](C(=O)O)CC2)cc1 measured=2.9

Consider the molecule O=C(O)C[C@H]1CC[C@H](c2ccc(C(=O)Nc3nnc(CCC4CCCO4)s3)cc2)CC1 (stereo partly drawn) . State its measured Papp.
7.2

###

- run_description: Metabolic stability in mouse liver microsomes
- Type: ADME
// classify: if (Stability < 20%) satisfied else not satisfied

Past entries and their recorded results:
smiles_notation=O=C(Nc1nc(Cc2ccccc2)no1)c1ccc(O[C@H]2CC[C@@H](C(=O)O)CC2)cc1 answer_label="not satisfied"
smiles_notation=O=C(Nc1nnc(Cc2ccccc2)s1)c1ccc(O[C@H]2CC[C@@H](C(=O)O)CC2)nc1 answer_label="not satisfied"
smiles_notation=O=C(Nc1nnc(Cc2cccc(Cl)c2)s1)c1ccc(O[C@H]2CC[C@@H](C(=O)O)CC2)nc1 answer_label="not satisfied"

State whether 20% exceeds Stability recorded for O=C(Nc1nnc(NC2CCCC2)s1)c1ccc(O[C@H]2CC[C@@H](C(=O)O)CC2)cc1 .
satisfied

State whether 20% exceeds Stability recorded for O=C(O)C[C@H]1CC[C@H](c2ccc(C(=O)Nc3nnc(COC4CCCC4)s3)cc2)CC1 .
satisfied

###

- System: Liver microsome
- run_description: Metabolic stability in rat liver microsomes
- Assay type: ADME
Assign class by Stability: not lower than 10% means YES; lower than 10% means NO.

Past entries and their recorded results:
smiles_notation=O=C(Nc1nnc(Cc2cccc(Cl)c2)s1)c1ccc(O[C@H]2CC[C@@H](C(=O)O)CC2)nc1 assayed_system="Liver microsome" answer_label=YES
smiles_notation=O=C(Nc1nnc(Cc2ccccc2)s1)c1ccc(O[C@H]2CC[C@@H](C(=O)O)CC2)nc1 assayed_system="Liver microsome" answer_label=YES
smiles_notation=O=C(Nc1nnc(Cc2cc(F)cc(F)c2)s1)c1ccc(O[C@H]2CC[C@@H](C(=O)O)CC2)cc1 assayed_system="Liver microsome" answer_label=NO
smiles_notation=O=C(O)C[C@H]1CC[C@H](c2ccc(C(=O)Nc3nnc(COC4CCCC4)s3)cc2)CC1 assayed_system="Liver microsome" answer_label=NO
smiles_notation=O=C(Nc1nc(Cc2cc(F)cc(F)c2)no1)c1ccc(O[C@H]2CC[C@@H](C(=O)O)CC2)cc1 assayed_system="Liver microsome" answer_label=YES
smiles_notation=O=C(Nc1nnc(Cc2cc(F)cc(F)c2)s1)c1ccc(O[C@H]2CC[C@H](C(=O)O)CC2)cc1 assayed_system="Liver microsome" answer_label=NO

Check this molecule for Stability at or above 10%: O=C(Nc1nnc(COC2CCCC2)s1)c1ccc(O[C@H]2CC[C@@H](C(=O)O)CC2)cc1
NO

Check this molecule for Stability at or above 10%: O=C(Nc1nnc(Cc2ccccc2)s1)c1ccc(O[C@H]2CC[C@@H](C(=O)O)CC2)cc1
YES

Check this molecule for Stability at or above 10%: O=C(O)C[C@H]1CC[C@H](c2ccc(C(=O)Nc3nnc(Cc4ccccc4)s3)cc2)CC1
YES

###

- Test system: Liver microsome
- run_description: Metabolic stability in rat liver microsomes
- Format: ADME
value_kind: Stability

Sample answers from the record:
compound=O=C(Nc1nnc(NC2CCCC2)s1)c1ccc(O[C@H]2CC[C@@H](C(=O)O)CC2)cc1 measured=4%
compound=O=C(Nc1nnc(Nc2ccccc2)s1)c1ccc(O[C@H]2CC[C@@H](C(=O)O)CC2)cc1 measured=4%
compound=O=C(Nc1nc(Cc2ccccc2)no1)c1ccc(O[C@H]2CC[C@@H](C(=O)O)CC2)cc1 measured=53%

Here is the next item to consider.
Consider the compound O=C(O)C[C@H]1CC[C@H](c2ccc(C(=O)Nc3nnc(CCC4CCCO4)s3)cc2)CC1 (some centres undefined) . State its measured Stability.
3%

###

- Tested on: Liver microsome
- run_description: Metabolic stability in human liver microsomes
- Type: ADME
value_kind: Stability (%)
Provide the reading as a plain figure in %.

Sample answers from the record:
smiles_notation=O=C(Nc1nc(Cc2ccccc2)no1)c1ccc(O[C@H]2CC[C@@H](C(=O)O)CC2)cc1 measured=2
smiles_notation=O=C(Nc1nnc(Cc2cc(F)cc(F)c2)s1)c1ccc(O[C@H]2CC[C@@H](C(=O)O)CC2)cc1 measured=1
smiles_notation=O=C(Nc1nc(Cc2cc(F)cc(F)c2)no1)c1ccc(O[C@H]2CC[C@@H](C(=O)O)CC2)cc1 measured=1

Consider the molecule O=C(Nc1nnc(Cc2ccccc2)s1)c1ccc(O[C@H]2CC[C@@H](C(=O)O)CC2)nc1 . State its measured Stability.
1

Consider the molecule O=C(Nc1nnc(Cc2cccc(Cl)c2)s1)c1ccc(O[C@H]2CC[C@@H](C(=O)O)CC2)nc1 . State its measured Stability.
2

Consider the molecule O=C(Nc1nnc(NC2CCCC2)s1)c1ccc(O[C@H]2CC[C@@H](C(=O)O)CC2)cc1 . State its measured Stability.
2

Consider the molecule O=C(Nc1nnc(Nc2ccccc2)s1)c1ccc(O[C@H]2CC[C@@H](C(=O)O)CC2)cc1 . State its measured Stability.
11

Consider the molecule O=C(O)C[C@H]1CC[C@H](c2ccc(C(=O)Nc3nnc(COC4CCCC4)s3)cc2)CC1 . State its measured Stability.
3
